# Tested on: SR leukemia
# PROCEDURE_TEXT: NCI tumour cell line growth inhibition, 48 h; in the data active means GI50 below about 0.43 µM; inactive means the rest
Give your call using only these classes: YES = active, NO = inactive

The following molecules have reported results that may help.
MOLECULE	SYSTEM_TESTED	ASSIGNED_CATEGORY
COc1ccc(CCN=C2NC(=O)/C(=C/c3ccc4ncccc4c3)S2)cc1	SR leukemia	NO
c1ccc(Sc2ncnc3ccccc23)cc1	SR leukemia	NO
Nc1ccccc1SC(CC(=O)c1ccccc1)c1cccc([N+](=O)[O-])c1 (centres undefined)	SR leukemia	NO
N#CC(C#N)=C/C=C(\Sc1nc2ccccc2s1)c1ccc(Cl)cc1	SR leukemia	NO
O=C(/C(=C/c1ccc([N+](=O)[O-])cc1)SCc1ccccc1)c1ccc(Cl)cc1	SR leukemia	NO
O=C(Nc1ccc(Oc2ccc(Nc3nc4ccccc4s3)cc2)cc1)Nc1ccc(Cl)c(C(F)(F)F)c1	SR leukemia	NO

Could you please tell me the result logged for CCN(Cc1ccc(F)cc1)c1cc(Cl)c(CO)c(Cl)c1 in this assay?
NO

Could you please tell me the result logged for Nc1c(C(=O)Nc2cccc(C(F)(F)F)c2)sc2nc3c(cc12)CCCCC3 in this assay?
NO

Could you please tell me the result logged for COc1ccc(-c2cn[nH]c2-c2cc(OC)c(OC)c(OC)c2)cc1 in this assay?
YES

----------
# Tested on: NCI-H460 lung
# PROCEDURE_TEXT: NCI tumour cell line growth inhibition, 48 h
QUANTITY_NAME: TGI

Please review the following examples before continuing.
COMPOUND	QUANTITY_NAME	OBSERVED_VALUE
N#C/C(=C1/Sc2c(nc[nH]c2=O)N1c1ccccc1)c1nc2ccccc2[nH]1	TGI	> 100 µM
CC(=O)Nn1c(=S)[nH]c2ccccc21	TGI	> 100 µM
COC(=O)c1c(C)nc2c1cc(O)c1[nH]c(C)c(C)nc12	TGI	> 100 µM
Cc1oc2c(cc(O)c3cc(O)ccc32)c2cccc1-2	TGI	> 100 µM
C[C@]12CCC3C4=C(CCC3C1CCC2=O)C(=O)[C@H]1O[C@H]1C4=O (stereo not given in full)	TGI	23.9 µM

Give TGI for C=C1C(=O)O[C@H]2[C@H]1CC/C(COC(=O)NCc1ccc(Cn3c(=O)sn(-c4ccc(OC)cc4)c3=O)cc1)=C\CC[C@@]1(C)O[C@@H]21
13.5 µM

Give TGI for COc1ccc(-c2[nH]c3c4c(nc5c(c24)C(=O)CC(C)(C)C5)CC(C)(C)C3)cc1
> 100 µM

Give TGI for CC(C)(C)c1cc2ccc(C(N)=O)cc2c(=O)[nH]1
> 100 µM

Give TGI for COc1ncc(/C=C2\OC(=O)c3ccccc32)c(OC)n1
> 100 µM

----------
# Test system: HL-60(TB) leukemia
# PROCEDURE_TEXT: NCI tumour cell line growth inhibition, 48 h
Mark satisfied for reported TGI of 20 µM or greater; mark not satisfied for anything smaller.

The following compounds have reported results that may help.
COMPOUND	ASSIGNED_CATEGORY
COc1ccc(C(=C2C=CC=C2)c2ccc(OC)cc2)cc1	satisfied
COc1ccc(OC)c(N2CC(N)C2=O)c1 (stereo unspecified)	satisfied
Oc1ccc(Cc2cc(Cc3ccc(O)cc3)cc(Cc3ccc(O)cc3)c2)cc1	satisfied
CCCCCCCC/C=C\CCCCCCCCCCCC(=O)O	satisfied
Nc1ccc(C2=NNC(=O)Cc3cc4c(cc32)OCCO4)cc1Cl	not satisfied

In the following, a different compound is considered.
Quick check: does Cc1ccccc1C(=N)c1ccccc1Cc1cccc2ccccc12 have TGI greater than or equal to 20 µM?
satisfied

----------
The compounds listed here are annotated with their TGI.
# System: NCI-H522 lung
# PROCEDURE_TEXT: NCI tumour cell line growth inhibition, 48 h
Quick reminder: number only, in µM, skip the unit.

Please review the following examples before continuing.
COMPOUND	QUANTITY_NAME	OBSERVED_VALUE
C=CC1(CC/C(=C\[N+](=O)[O-])c2ccc(OC)c(OC)c2)OCC(C)(C)CO1	TGI	37.8
COc1cc(C2CC(C)(O)Oc3cc4c(cc32)OCO4)cc(OC)c1OC (stereo not given)	TGI	0.661
Nc1c(C(=O)Nc2cccc(C(F)(F)F)c2)sc2nc3c(cc12)CCCCC3	TGI	17.7
Cc1ccccc1C(=N)c1ccccc1Cc1cccc2ccccc12	TGI	34.6
O=C(OCc1ccccc1)N1CCNCCN(C(=O)OCc2ccccc2)CCNCC1	TGI	34.5
O=C(/C=C/c1ccccc1)C[C@@H](O)C[C@@H]1CC=CC(=O)O1	TGI	6.9
C(=C(c1ccc(OC2CCCCO2)cc1)c1ccc(OC2CCCCO2)cc1)c1ccccc1 (stereo not given)	TGI	2.4
N#CC(C#N)=C/C=C(\Sc1nc2ccccc2s1)c1ccc(Cl)cc1	TGI	41.9

Give TGI for CCCCCCCCCCn1cc[n+](C)c1
10.4

Give TGI for COc1cccc(C(=O)NC(c2ccc(C)cc2)c2cc(Cl)c3cccnc3c2O)c1 (stereo not given)
1.65

----------
The compounds listed here are annotated with their TGI.
# Test system: IGROV1 ovarian
# PROCEDURE_TEXT: NCI tumour cell line growth inhibition, 48 h

Please review the following examples before continuing.
TEST_SMILES	QUANTITY_NAME	OBSERVED_VALUE
Nn1c(-c2ccccc2)n[nH]c1=O	TGI	> 100 µM
Nc1c(-c2ccc(Cl)c(Cl)c2)c2ccc([N+](=O)[O-])cc2c(=O)n1-c1nc2ccccc2s1	TGI	> 100 µM
Nc1c(S(=O)(=O)O)cc2cc(S(=O)(=O)O)ccc2c1N=Nc1ccc(-c2ccc(N=Nc3c(N)c(S(=O)(=O)O)cc4cc(S(=O)(=O)O)ccc34)c(S(=O)(=O)O)c2)cc1	TGI	> 100 µM
CCOC(=O)Nc1sc2c(c1C#N)CCCC2	TGI	> 100 µM

Give TGI for Oc1ccc(Cc2cc(Cc3ccc(O)cc3)cc(Cc3ccc(O)cc3)c2)cc1
> 50 µM

Give TGI for CCn1c(-c2nonc2N)nc2c(C#CC(C)(C)O)nc(OC[C@@H](N)c3ccccc3)cc21
10.4 µM

Give TGI for COc1ccc(-n2c(C)nc3ccc(NC(=S)Nc4ccccc4)cc3c2=O)cc1
> 100 µM

Give TGI for Nc1nccc(-c2c[nH]c3cc(Br)ccc23)n1
> 100 µM

Give TGI for COCCOc1ccc(-c2nc3ccc(-c4nc5ccc(N6CCN(C)CC6)cc5[nH]4)cc3[nH]2)cc1
4.81 µM

----------
The molecules listed here are annotated with their TGI.
# Test system: RPMI-8226 leukemia
# PROCEDURE_TEXT: NCI tumour cell line growth inhibition, 48 h
Quick reminder: number only, in µM, skip the unit.

Give TGI for S=C(N/N=C(/c1ccccc1)c1ccccn1)N(Cc1ccccn1)Cc1ccccn1
3.38

Give TGI for COc1cccc(Nc2nc(-c3cccs3)nc3cc(OC)c(OC)cc23)c1
27.3

Give TGI for CCCOc1cc2ccccc2cc1C(=O)Nc1nc(N)c2c(ccc3nccc32)[nH]1
2.15

Give TGI for CCN1C(=O)N(c2ccccc2)C2NC(=S)N(/N=C/C=C/c3ccccc3OC)C21 (stereo unspecified)
14.2

Give TGI for CCCCCC[C@@H]1CCC2C(CO)[C@@H](O)CC[C@@H]2C1 (stereo partly specified)
63.2

Give TGI for COc1cc(/C(C#N)=C/c2nc3c(N4CCOCC4)nc(Cl)nc3n2C)cc(OC)c1OC
1.88

----------
# Test system: ACHN renal
# PROCEDURE_TEXT: NCI tumour cell line growth inhibition, 48 h
The molecules listed here are annotated with their TGI.

MOLECULE	SYSTEM_TESTED	QUANTITY_NAME	OBSERVED_VALUE
COc1ccc(C2[C@@H](c3ccccc3)C(=O)N2c2cc(OC)c(OC)c(OC)c2)cc1F (stereo partly specified)	ACHN renal	TGI	> 100 µM

Give TGI for O=C1NC(=NC(CO)Cc2ccccc2)S/C1=C\c1ccc2ncccc2c1 (stereo unspecified)
> 25 µM

Give TGI for COc1ccc(CN2C(=O)/C(=C\c3cc(OC)c(OC)c(OC)c3)c3ccccc32)cc1
4.41 µM

Give TGI for COc1ccc(N=NC(=Nc2ccccc2)c2ccc(N(CCC#N)CCC#N)cc2)cc1
> 100 µM

Give TGI for N#Cc1c[nH]n2c(N=Nc3ccc(Cl)cc3)c(O)nc12
62 µM

Give TGI for COc1cccc(C2SC(N)=Nc3c2c(C)nn3C(=O)c2ccccc2O)c1 (stereo unspecified)
> 10 µM

Give TGI for C/C(=C\CBr)CCC(Br)C(C)(C)Br (stereo unspecified)
> 100 µM

----------
The compounds listed here are annotated with their TGI.
# Test system: SK-MEL-28 melanoma
# PROCEDURE_TEXT: NCI tumour cell line growth inhibition, 48 h

Please review the following examples before continuing.
COMPOUND	OBSERVED_VALUE
N[C@@H](CCC(=O)NCP(=O)(O)O)C(=O)O	> 100 µM
Cc1ccc(-n2c3nc(=O)[nH]c(=O)c-3cc3cc([N+](=O)[O-])ccc32)cc1	42.2 µM
CCOC(=S)SCC(=O)O	> 100 µM
COCCOc1ccc(-c2nc3ccc(-c4nc5ccc(N6CCN(C)CC6)cc5[nH]4)cc3[nH]2)cc1	2.21 µM
CCCOc1cc2ccccc2cc1C(=O)Nc1nc(N)c2c(ccc3nccc32)[nH]1	2.36 µM
Cc1oc2c(cc(O)c3cc(O)ccc32)c2cccc1-2	> 100 µM
O=C(/C=C/c1ccc(O)cc1)c1ccc(O)cc1	61.3 µM
O=C1C=CC(=O)c2nc3c(cc21)CCC3	40.4 µM

Give TGI for S=C(N/N=C(/c1ccccc1)c1ccccn1)N(Cc1ccccn1)Cc1ccccn1
5.45 µM

Give TGI for COc1ccc(-c2[nH]c3c4c(nc5c(c24)C(=O)CC(C)(C)C5)CC(C)(C)C3)cc1
> 100 µM

Give TGI for CC(C)c1cc2c(cc1S(=O)(=O)O)[C@@]1(C)CCC[C@@](C)(C(=O)O)C1CC2 (stereo partly specified)
> 100 µM

Give TGI for COc1cccc(C(=O)NC(c2ccc(C)cc2)c2cc(Cl)c3cccnc3c2O)c1 (stereo unspecified)
17.1 µM

Give TGI for COc1ccc2cc1Oc1ccc(cc1)C[C@H]1c3cc(c(OC)cc3CCN1C)Oc1c(O)c(OC)cc3c1[C@H](C2)N(C)CC3
48.3 µM

Give TGI for O=C(/C=C/c1ccc2c(c1)OCO2)Cc1nc2ncccc2[nH]c1=O
> 100 µM

Give TGI for CCCCN(CCCC)C(=O)C(=O)C(C(=O)c1ccc(OC)cc1)c1ccc(OC)cc1 (stereo unspecified)
> 100 µM

Give TGI for CN1CC[C@@H](NC(=O)Nc2ccc(C#N)cc2)C[C@@H]1c1nc2ccccc2[nH]1
> 100 µM

Give TGI for CC(=O)Oc1cccc2c1C(=O)CCCC2
> 100 µM
